# test.details: Apparent permeability of the compound in dog MDCK-MDR1 cells measured after 1 hr by HPLC-MS analysis
Papp at 1 h values by entry
Report the value in ×10⁻⁶ cm/s with no unit label.

Task: Fill in the blank: the reported Papp at 1 h of C[C@@]1(c2cccc(NC(=O)c3ccc(Br)cn3)c2)CO[C@@](C)(C(F)(F)F)C(N)=N1 (racemic) is ____.
Result: 10.3

Task: What does the record list as Papp at 1 h for C[C@]1(C(F)(F)F)OC[C@@](C)(c2cccc(NC(=O)c3ccc(Br)cn3)c2)N=C1N (racemic) ?
Result: 4.9

* * *

# subject.of.test: Beta-secretase 1 (Cricetulus griseus, UniProt G3IAK4)
# Sequence (G3IAK4 whole entry): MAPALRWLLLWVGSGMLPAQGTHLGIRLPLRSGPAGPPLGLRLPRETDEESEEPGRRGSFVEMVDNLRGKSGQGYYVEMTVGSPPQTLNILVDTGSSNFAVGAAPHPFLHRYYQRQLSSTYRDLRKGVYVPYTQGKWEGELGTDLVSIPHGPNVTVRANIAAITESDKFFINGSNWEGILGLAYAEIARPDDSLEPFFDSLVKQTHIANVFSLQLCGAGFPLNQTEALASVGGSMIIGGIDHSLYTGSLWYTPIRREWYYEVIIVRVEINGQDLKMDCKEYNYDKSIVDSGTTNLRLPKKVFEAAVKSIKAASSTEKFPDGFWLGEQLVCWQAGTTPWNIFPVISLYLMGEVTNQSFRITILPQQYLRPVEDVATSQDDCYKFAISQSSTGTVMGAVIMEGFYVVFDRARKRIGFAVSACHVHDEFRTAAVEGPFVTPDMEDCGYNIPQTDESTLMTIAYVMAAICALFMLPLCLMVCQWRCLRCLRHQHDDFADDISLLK
# test.details: Inhibition of wild type human APP751 expressed in CHO cells incubated for 24 hrs by immunoassay
# Type: cell-based
# cond: cho
Known IC50 of a selection of compounds
Only the number, expressed in nM, is required.

Example entries and their recorded answers appear below.
[
  {
    "compound": "Cc1cc(OC(F)F)cnc1C(=O)Nc1ccc(F)c([C@]2(C)CO[C@@](C)(C(F)(F)F)C(N)=N2)c1",
    "measured.metric": "IC50",
    "recorded.measurement": 6
  },
  {
    "compound": "CC1(c2cc(NC(=O)c3ccc(Br)cn3)ccc2F)COCC(N)=N1 (racemic)",
    "measured.metric": "IC50",
    "recorded.measurement": 3
  }
]

--- query ---
Task: Entry `C[C@@]1(c2cc(NC(=O)c3ccc(Br)cn3)ccc2F)CO[C@@](C)(C(F)(F)F)C(N)=N1` , system Beta-secretase 1 (Cricetulus griseus, UniProt G3IAK4): what IC50 was measured?
Result: 22
